Just for reference, PubChem BioAssay AID1645883 is where these values come from.

target: Rap guanine nucleotide exchange factor 3 (Homo sapiens); test: Validation qHTS for agonist of cAMP-regulated guanine nucleotide exchange factor 3 (EPAC1); conditions: EPAC1 Rap1b BODIPY-GDP exchange, fluorescence; active compounds read high, percent of cAMP control response; further: on the % scale 0 is the no-effect control and ±100 the full control effect; nearly all actives have a fitted effect of over 70% in size
In all, about 16,000 compounds went through this assay and about 160 (1%) were called active. Roughly 8% stayed inconclusive and do not appear here. This is one part of a sample in which actives are shown more often than they occur.
Exercise: for every item that follows, state its recorded max response.
One number for each entry, in %.

Recorded max response, per entry:
# MOLECULE, max response (%)
measured = [
    ("Cc1ccc(C(=O)Nc2cccc(-c3nc(CNC(=O)c4ccccc4-n4cccn4)c(C)o3)c2)s1", -3.18),
    ("Cn1c(=O)c(CCc2ccccc2)nc2cnc(Nc3ccccc3)nc21", -11),
    ("CC(C)C1=CC2=CC[C@@H]3[C@](C)(CO)CCC[C@]3(C)C2CC1 (some centres not stated)", -8.55),
    ("O=P(O)(O)OC[C@H](O)CO", -11.2),
]

# batch: return max response for each of the 2 molecules below
1. CCCCCCCCCCCCCCCCO
2. O=c1c(-c2cccs2)nc2cnc(Oc3ccccc3)nc2n1-c1ccccc1

1. -1.51
2. 26.8
